Values were extracted from patent US9820923B2.

tested on: B16V mouse melanoma cells; experiment: Depigmentation effect on melanoma cell cultures; assay type: cell-based; settings: 0.6 mM tyrosine and 10 nM MSH, 96 h, read-out: IC50 (Inhibition of pigmentation)
reported endpoint: pIC50
pIC50 field: float, defined as -log10 of concentration (mol/L).

Query: Please report the recorded pIC50 for CC1CC(OC(=O)CCC(=O)N(C)C)CC(C)(C)C1 (stereo not shown) [S7a/S7b**] .
Response: 4.74
